Reference source: patent US9725442B2

VALUE_TYPE: IC50

q: Hello, I am looking for reported IC50 with CYP3A4 (Homo sapiens (Human)) for CC(C)Oc1ccc(S(=O)(=O)N2C[C@@H](C)[C@@H](n3nc(CC(=O)O)c4ccc(F)cc43)C2)cc1 . Could you help?
a: > 20 µM

q: Hello, I am looking for reported IC50 with CYP3A4 (Homo sapiens (Human)) for CCOc1ccc(S(=O)(=O)N2C[C@@H](C)[C@@H](n3nc(CC(=O)O)c4ccccc43)C2)cn1 . Could you help?
a: > 20 µM

q: Hello, I am looking for reported IC50 with CYP3A4 (Homo sapiens (Human)) for CC(C)Oc1ccc(S(=O)(=O)N2C[C@H](n3nc(CC(=O)O)c4ccc(F)cc43)C[C@H]2CO)cc1 . Could you help?
a: > 20 µM

====

# ASSAYED_SYSTEM: Human DP1 receptor (Homo sapiens (Human), UniProt Q13258)
# Sequence (Q13258 whole entry): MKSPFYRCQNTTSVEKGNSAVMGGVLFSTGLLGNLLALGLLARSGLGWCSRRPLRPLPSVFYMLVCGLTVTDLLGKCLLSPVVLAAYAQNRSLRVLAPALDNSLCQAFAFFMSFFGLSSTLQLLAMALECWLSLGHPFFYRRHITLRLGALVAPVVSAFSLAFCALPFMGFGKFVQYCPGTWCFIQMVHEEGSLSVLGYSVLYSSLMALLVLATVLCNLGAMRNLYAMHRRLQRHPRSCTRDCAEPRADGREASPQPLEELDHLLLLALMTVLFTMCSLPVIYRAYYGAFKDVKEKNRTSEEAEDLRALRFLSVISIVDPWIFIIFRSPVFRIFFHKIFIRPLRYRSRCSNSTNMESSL
# METHOD_SUMMARY: Human DP1 inhibitory activity in DP1-expressing cell (PGD2-induced cAMP)
# Type: cell-based
# CONDITIONS_USED: category of cAMP IC50, human DP1 receptor expressing Jurkut cell
VALUE_TYPE: IC50

q: Hello, I am looking for reported IC50 with Human DP1 receptor (Homo sapiens (Human), UniProt Q13258) for C=C1CN(S(=O)(=O)c2ccc(OC(C)C)cc2)CC1n1nc(CC(=O)O)c2ccc(F)cc21 (stereo not shown) . Could you help?
a: 100 to 5000 nM

q: Hello, I am looking for reported IC50 with Human DP1 receptor (Homo sapiens (Human), UniProt Q13258) for CCOc1ccc(S(=O)(=O)N2C[C@@H](C)[C@@H](n3nc(CC(=O)O)c4cc5c(cc43)OCO5)C2)cc1 . Could you help?
a: 100 to 5000 nM

q: Hello, I am looking for reported IC50 with Human DP1 receptor (Homo sapiens (Human), UniProt Q13258) for C[C@@H]1CN(S(=O)(=O)c2ccc(OCF)cc2)C[C@@H]1n1nc(CC(=O)O)c2ccc(F)cc21 . Could you help?
a: < 100 nM

q: Hello, I am looking for reported IC50 with Human DP1 receptor (Homo sapiens (Human), UniProt Q13258) for CCOc1ccc(S(=O)(=O)N2C[C@@H](C)[C@@H](n3nc(CC(=O)O)c4ccc(C#N)cc43)C2)cc1 . Could you help?
a: < 100 nM

====

# ASSAYED_SYSTEM: CRTH2 (Homo sapiens (Human))
# Sequence (Q9Y5Y4 whole entry): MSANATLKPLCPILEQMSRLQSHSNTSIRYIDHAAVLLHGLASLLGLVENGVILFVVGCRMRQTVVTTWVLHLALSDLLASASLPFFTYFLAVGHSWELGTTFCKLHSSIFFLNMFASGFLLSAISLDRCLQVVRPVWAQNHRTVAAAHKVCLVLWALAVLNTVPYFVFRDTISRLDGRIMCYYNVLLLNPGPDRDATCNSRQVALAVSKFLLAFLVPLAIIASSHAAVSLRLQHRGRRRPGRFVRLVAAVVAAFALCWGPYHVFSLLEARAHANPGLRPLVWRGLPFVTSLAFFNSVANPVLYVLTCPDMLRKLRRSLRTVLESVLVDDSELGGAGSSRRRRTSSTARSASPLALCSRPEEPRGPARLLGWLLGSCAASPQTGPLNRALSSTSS
# METHOD_SUMMARY: CRTH2 receptor binding inhibitory activity ([3H]-PGD2 displacement, membranes of CRTH2-expressing K562 cell)
# CONDITIONS_USED: CRTH2 receptor binding, [3H]-PGD2 displacement, membrane of CRTH2-expressing K562 cell; categorized AAAA/AAA; read-out: Ki
pKi: −log10 of the molar value.
VALUE_TYPE: pKi

q: # pKi lookup, item COc1ccc(S(=O)(=O)N2C[C@@H](C)[C@@H](n3nc(CC(=O)O)c4cc(Cl)ccc43)C2)cc1
a: 5.30 to 7.00

q: # pKi lookup, item CC(C)Oc1ccc(S(=O)(=O)N2C[C@@H](C)[C@@H](n3nc(CC(=O)O)c4cccc(F)c43)C2)cc1
a: > 7.00

q: # pKi lookup, item CCOc1ccc(S(=O)(=O)N2C[C@H](n3nc(CC(=O)O)c4ccccc43)CC23COC3)cc1
a: 5.30 to 7.00

q: # pKi lookup, item CCOc1ccc(S(=O)(=O)N2C[C@@H](C)[C@@H](n3nc(C(C)(OC)C(=O)O)c4ccccc43)C2)cc1 (stereo partly drawn)
a: 5.30 to 7.00

q: # pKi lookup, item Cc1c(CC(=O)O)c2ccccc2n1[C@@H]1C[C@H](C)N(S(=O)(=O)c2ccc(F)cc2)C1
a: 5.30 to 7.00

q: # pKi lookup, item CCOc1ccc(S(=O)(=O)N2C[C@@H](C)[C@@H](n3c(C)c(CC(=O)O)c4ccccc43)C2)cn1
a: > 7.00

q: # pKi lookup, item CC(C)Oc1ccc(S(=O)(=O)N2C[C@H](n3nc(CC(=O)O)c4ccc(F)cc43)C[C@H]2CF)cc1
a: > 7.00

q: # pKi lookup, item Cc1ccc2c(c1)c(CC(=O)O)nn2[C@H]1CN(S(=O)(=O)c2ccc(OCF)cc2)C[C@H]1C
a: > 7.00

q: # pKi lookup, item C=CC[C@@H]1CN(S(=O)(=O)c2ccc(OC(C)C)cc2)C[C@@H]1n1nc(CC(=O)O)c2ccc(F)cc21
a: > 7.00

q: # pKi lookup, item CC(C)Oc1ccc(S(=O)(=O)N2C[C@H](C)[C@@H](n3nc(CC(=O)O)c4ccccc43)C2)cc1
a: > 7.00

q: # pKi lookup, item CCOc1ccc(S(=O)(=O)N2C[C@@H](C)[C@@H](n3nc(CC(=O)O)c4cc(Cl)ccc43)C2)cc1
a: 5.30 to 7.00

q: # pKi lookup, item COC[C@H]1C[C@@H](n2nc(CC(=O)O)c3ccc(F)cc32)CN1S(=O)(=O)c1ccc(OC(C)C)cc1
a: > 7.00

q: # pKi lookup, item CC(C)Oc1ccc(S(=O)(=O)N2C[C@@H](C)[C@@H](n3nc(CC(=O)O)c4ccccc43)C2)cc1
a: > 7.00

q: # pKi lookup, item COc1ccc(S(=O)(=O)N2C[C@@H](C)[C@@H](n3nc(CC(=O)O)c4ccc(C(F)(F)F)cc43)C2)cc1
a: > 7.00

q: # pKi lookup, item CCOc1ccc(S(=O)(=O)N2C[C@@H](n3nc(CC(=O)O)c4ccc(F)cc43)[C@@H](C)[C@@H]2C#N)cc1
a: 5.30 to 7.00

q: # pKi lookup, item CC(C)Oc1ccc(S(=O)(=O)N2C[C@H](n3nc(CC(=O)O)c4ccc(F)cc43)C[C@@H]2c2ccccn2)cc1 [Compound I-351]
a: 5.30 to 7.00

q: # pKi lookup, item CCOc1ccc(S(=O)(=O)N2C[C@H](n3nc(CC(=O)O)c4ccccc43)[C@H](C)[C@@H]2C#N)cc1
a: > 7.00

q: # pKi lookup, item Cc1ccc(S(=O)(=O)N2C[C@@H](C)[C@@H](n3c(C)c(CC(=O)O)c4ccccc43)C2)cc1
a: > 7.00

q: # pKi lookup, item CC(C)Oc1ccc(S(=O)(=O)N2C[C@H](n3nc(CC(=O)O)c4ccc(F)cc43)C[C@@H]2COc2ccccc2)cc1
a: 5.30 to 7.00

q: # pKi lookup, item CCOc1ccc(S(=O)(=O)N2C[C@@H](C)[C@@H](n3nc(CC(=O)NS(C)(=O)=O)c4ccccc43)C2)cc1
a: 5.30 to 7.00

q: # pKi lookup, item C[C@@H]1CN(S(=O)(=O)c2ccc(Oc3ccccc3)nc2)C[C@@H]1n1nc(CC(=O)O)c2ccccc21
a: 5.30 to 7.00

q: # pKi lookup, item CC(C)Oc1ccc(S(=O)(=O)N2C[C@H](n3nc(CC(=O)O)c4ccc(F)cc43)C[C@@H]2CS(C)(=O)=O)cc1
a: 5.30 to 7.00

q: # pKi lookup, item CCc1ccc(S(=O)(=O)N2C[C@@H](C)[C@@H](n3nc(CC(=O)O)c4ccc(F)cc43)C2)cc1
a: > 7.00

q: # pKi lookup, item CC(C)Oc1ccc(S(=O)(=O)N2C[C@H](n3nc(CC(=O)O)c4ccc(F)cc43)CC2c2cccnc2)cc1 (stereo partly drawn)
a: 5.30 to 7.00

q: # pKi lookup, item CCOc1ccc(S(=O)(=O)N2C[C@H](n3nc(CC(=O)O)c4ccccc43)[C@@H](C)[C@@H]2C(N)=O)cc1
a: 5.30 to 7.00

q: # pKi lookup, item COc1ccc(S(=O)(=O)N2C[C@@H](C)[C@@H](n3nc(CC(=O)O)c4ccc(F)cc43)C2)c(F)c1
a: > 7.00

q: # pKi lookup, item CCOc1ccc(S(=O)(=O)N2C[C@@H](C)[C@@H](n3nc(CC(=O)O)c4cc5c(cc43)OCO5)C2)cc1
a: > 7.00
